These data points were gathered from patent US8541455B2.

Structures can show the parent of a compound that is named as a salt.

| compound | unit | melting point |
| --- | --- | --- |
| CCCc1[nH]n(-c2ccc(S(=O)(=O)N(CC)c3ccccc3)cn2)c(=O)c1Cc1ccccc1 | °C | 180 |
| CCN(c1ccccc1)S(=O)(=O)c1ccc(-n2[nH]c(C)c(Cc3cc(OC)ccc3OC)c2=O)nc1 | °C | 140 |
| CC(C)(C)NS(=O)(=O)c1ccc(-n2[nH]cc(Cc3cccnc3)c2=O)nc1 [Compound 98A] | °C | 220 |
| COc1cncc(Cc2c(C)[nH]n(-c3ccc(S(=O)(=O)NC(C)(C)C)cn3)c2=O)c1 (as salt: HCl) | °C | 150 |
| COc1ccc(OC)c(Cc2c(C)[nH]n(-c3ccccn3)c2=O)c1 | °C | 62 |
| CCN(c1ccccc1)S(=O)(=O)c1ccc(-n2[nH]c(C)c(CC3CCN(C)CC3)c2=O)nc1 (as salt: HCl) | °C | 150 |
| COc1ccncc1Cc1c[nH]n(-c2ccc(S(=O)(=O)N(C)C3CCCC3)cn2)c1=O (as salt: HCl) | °C | 40 |
| CCN(C1CCCC1)S(=O)(=O)c1ccc(-n2[nH]cc(Cc3cccnc3)c2=O)nc1 (as salt: HCl) | °C | 110 |
| O=c1c(Cc2ccccc2)c[nH]n1-c1ccc(S(=O)(=O)NCCO)cn1 | °C | 180 |
| Cc1[nH]n(-c2ccccn2)c(=O)c1Cc1cccc(N(C)C)c1 (as salt: HCl) | °C | 132 |
| Cc1[nH]n(-c2ccccn2)c(=O)c1Cc1cccnc1 | °C | 80 |
| CN(C1CCCC1)S(=O)(=O)c1ccc(-n2[nH]cc(Cc3ccncc3)c2=O)nc1 (as salt: HCl) | °C | 130 |
| Cc1[nH]n(-c2ccccn2)c(=O)c1Cc1cccc(C#N)c1 | °C | 90 |
| CCOC(=O)CC(c1ccccc1)c1c[nH]n(-c2ccc(S(=O)(=O)NC(C)(C)C)cn2)c1=O (stereo not shown) | °C | 130 |
| CCN(c1ccccc1)S(=O)(=O)c1ccc(-n2[nH]c(C)c(CCc3ccccc3)c2=O)nc1 | °C | 158 |
| CN([C@@H]1CC[C@H](CO)C1)S(=O)(=O)c1ccc(-n2[nH]cc(Cc3ccccc3)c2=O)nc1 | °C | 108 |

* * *

metric: melting point (°C)

| compound | metric | observedValue |
| --- | --- | --- |
| CCN(c1ccccc1)S(=O)(=O)c1ccc(-n2[nH]cc(CC3CCCC3)c2=O)nc1 [Compound 134] | melting point | 170 |
| CCN(c1ccccc1)S(=O)(=O)c1ccc(-n2[nH]c(C)c(Cc3ccc(OC)cc3)c2=O)nc1 [Compound 54] | melting point | 188 |
| CC(C)(C)NS(=O)(=O)c1ccc(-n2[nH]cc(Cc3ccncc3)c2=O)nc1 [Compound 150] | melting point | 226 |
| CCN(c1ccccc1)S(=O)(=O)c1ccc(-n2[nH]c(C)c(Cc3cccc(OC)c3)c2=O)nc1 [Compound 55] | melting point | 146 |
| COc1cc(Cc2c(C)[nH]n(-c3ccccn3)c2=O)cc(OC)c1 [Compound 179] | melting point | 96 |
| Cc1[nH]n(-c2ccccn2)c(=O)c1Cc1ccc(C#N)cc1 [Compound 173] | melting point | 154 |
| CCN(c1ccccc1)S(=O)(=O)c1ccc(-n2[nH]c(C)c(Cc3ccccc3C(=O)OC)c2=O)nc1 [Compound 116] | melting point | 146 |
| CCN(c1ccccc1)S(=O)(=O)c1ccc(-n2[nH]c(C)c(C(C)(C)c3ccccc3)c2=O)nc1 [Compound 77] | melting point | 122 |

* * *

Structures can show the parent of a compound that is named as a salt.
metric: melting point (°C)

| molecule | observedValue |
| --- | --- |
| CCN(c1ccccc1)S(=O)(=O)c1ccc(-n2[nH]c(COC)c(Cc3ccccc3)c2=O)nc1 | 158 |
| COc1ccc(Cc2c(C)[nH]n(-c3ccccn3)c2=O)cc1 | 96 |
| CCN(c1ccccc1)S(=O)(=O)c1ccc(-n2[nH]c(C)c(Cc3ccc(O)cc3)c2=O)nc1 | 208 |
| CCN(c1ccccc1)S(=O)(=O)c1ccc(-n2[nH]c(C)c(Cc3cncc(OC)c3)c2=O)nc1 | 138 |
| CCN(c1ccccc1)S(=O)(=O)c1ccc(-n2[nH]cc(Cc3cccnc3)c2=O)nc1 (as salt: HCl) | 142 |
| CCN(c1ccccc1)S(=O)(=O)c1ccc(-n2[nH]c(C)c(Cc3ncccc3OC)c2=O)nc1 | 130 |
| Cc1[nH]n(-c2ccccn2)c(=O)c1Cc1ccccc1 | 110 |
| Cc1[nH]n(-c2ccc(S(=O)(=O)c3ccccc3)cn2)c(=O)c1Cc1cccnc1 | 176 |
| O=c1c(Cc2ccccc2)c[nH]n1-c1ccc(S(=O)(=O)N[C@H]2CCC[C@@H]2O)cn1 | 176 |
| CCC(C)(C)N(C)S(=O)(=O)c1ccc(-n2[nH]cc(Cc3cccnc3)c2=O)nc1 | 162 |
| CCN(c1ccccc1)S(=O)(=O)c1ccc(-n2[nH]c(CC(=O)N(C)C)c(Cc3ccccc3)c2=O)nc1 | 163 |
| CCN(c1ccccc1)S(=O)(=O)c1ccc(-n2[nH]c(C)c(Cc3ccc(Cl)cc3Cl)c2=O)nc1 | 178 |
| CCN(c1ccccc1)S(=O)(=O)c1ccc(-n2[nH]c(C)c(Cc3cccc(OCCOC)c3)c2=O)nc1 | 126 |
| CCN(c1ccccc1)S(=O)(=O)c1ccc(-n2[nH]cc(CCC(=O)O)c2=O)nc1 | 214 |
| CCN(c1ccccc1)S(=O)(=O)c1ccc(-n2[nH]c(C)c(CCCc3ccccc3)c2=O)nc1 | 158 |
| Cc1[nH]n(-c2ccc(S(=O)(=O)Nc3ccccc3)cn2)c(=O)c1Cc1cccnc1 (as salt: HCl) | 154 |

* * *

Counter-ions that a name gives are not always drawn.
Response field label: string, one of rule met (melting point strictly below 200 °C) or rule not met.

| compound | assignedClass |
| --- | --- |
| O=c1c(Cc2ccccc2)c[nH]n1-c1ccc(S(=O)(=O)N(C[C@@H](O)CO)C2CCCC2)cn1 [Compound 142] | rule met |
| CN(C)CC(C)(C)NS(=O)(=O)c1ccc(-n2[nH]cc(Cc3ccccc3)c2=O)nc1 (as salt: HCl) [Compound 152] | rule not met |
| COc1cccc(Cc2c(C)[nH]n(-c3ccccn3)c2=O)c1 [Compound 193] | rule met |
| CCN(c1ccccc1)S(=O)(=O)c1ccc(-n2[nH]c(C)c(Cc3cccc(C(=O)OC)c3)c2=O)nc1 [Compound 111] | rule met |
| COC(=O)c1ccc(-n2[nH]c(C)c(Cc3ccccc3Cl)c2=O)nc1 (as salt: HCl) [Compound 170] | rule not met |
| CCN(c1ccccc1)S(=O)(=O)c1ccc(-n2[nH]cc(CCC(=O)OC)c2=O)nc1 [Compound 112] | rule met |
| COC(=O)C(c1ccccc1)c1c[nH]n(-c2ccc(S(=O)(=O)NC(C)(C)C)cn2)c1=O (centres unmarked) [Compound 113] | rule met |

* * *

Counter-ions that a name gives are not always drawn.
metric: melting point (°C)

| compound | observedValue |
| --- | --- |
| Cc1[nH]n(-c2ccc(S(=O)(=O)N(C)C)cn2)c(=O)c1Cc1cccnc1 | 212 |
| CN(C)CCCN(C1CCCC1)S(=O)(=O)c1ccc(-n2[nH]cc(Cc3ccccc3)c2=O)nc1 (as salt: HCl) | 230 |
| Cc1[nH]n(-c2ccc(S(=O)(=O)N(C(C)C)C(C)C)cn2)c(=O)c1Cc1ccc(Cl)cc1Cl | 226 |
| CCC(C)(C)NS(=O)(=O)c1ccc(-n2[nH]cc(Cc3cccnc3)c2=O)nc1 (as salt: HCl) | 126 |
| COC(C)(C)CNS(=O)(=O)c1ccc(-n2[nH]cc(Cc3ccccc3)c2=O)nc1 (as salt: HCl) | 194 |
| COC(=O)CC(c1cccnc1)c1c[nH]n(-c2ccc(S(=O)(=O)NC(C)(C)C)cn2)c1=O (stereo not shown) (as salt: HCl) | 146 |
| CCN(c1ccccc1)S(=O)(=O)c1ccc(-n2[nH]cc(Cc3ccccc3)c2=O)nc1 (as salt: HCl) | 180 |

* * *

Structures can show the parent of a compound that is named as a salt.
In this section we review reported melting point values for a set of molecules.

| molecule | melting point / °C |
| --- | --- |
| Cc1[nH]n(-c2ccccn2)c(=O)c1Cc1ccccc1C(F)(F)F | 106 |
| Cc1[nH]n(-c2ccccn2)c(=O)c1Cc1ccncc1 (as salt: HCl) [Compound 176] | 208 |
| COc1ccc(Cc2c(C)[nH]n(-c3ccc(S(=O)(=O)N(C)C(C)(C)C)cn3)c2=O)nc1 | 165 |
| CCN(c1ccccc1)S(=O)(=O)c1ccc(-n2[nH]c(C)c(Cc3ccc(C#N)nc3)c2=O)nc1 | 120 |
